study system: S1P1 (Homo sapiens (Human), UniProt P21453)
Sequence (P21453 whole entry): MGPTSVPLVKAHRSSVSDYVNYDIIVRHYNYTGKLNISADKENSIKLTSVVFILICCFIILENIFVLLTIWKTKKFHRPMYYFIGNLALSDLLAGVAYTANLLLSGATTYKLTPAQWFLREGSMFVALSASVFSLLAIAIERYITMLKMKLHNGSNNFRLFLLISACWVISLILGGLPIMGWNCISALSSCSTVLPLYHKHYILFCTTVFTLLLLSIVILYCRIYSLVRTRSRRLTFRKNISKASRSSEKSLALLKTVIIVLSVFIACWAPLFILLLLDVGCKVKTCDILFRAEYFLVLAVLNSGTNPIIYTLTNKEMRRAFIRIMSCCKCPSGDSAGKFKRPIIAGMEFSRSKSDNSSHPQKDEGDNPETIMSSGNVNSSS
protocol description: S1P1 agonist assay (Ec50 S1P1Ag)
Type: cell-based
Assign labels as follows, please: Y for EC50 below 90 nM; N for EC50 equal to or exceeding 90 nM.

Does the reported EC50 of CCOc1ccc(-c2nc(-c3ccc(CNCCO)cc3C)no2)cc1OCC [Compound 252] stay below 90 nM? Y

Same question, CCCCc1ccc(-c2nc(-c3ccncc3)no2)cc1 [Compound 51] this time N

Same question, CCOc1ccc(-c2nc(-c3cccc4c3CCC4N3CC[C@@H](O)C3)no2)cc1OCC (some centres unmarked) [Compound 250] this time Y

Same question, CCOc1ccc(-c2nc(-c3ccc(C#N)cc3C)no2)cc1OCC [Compound 122] this time Y

Same question, FC(F)(F)c1ccc(-c2noc(-c3ccnc(Cl)c3)n2)cc1 [Compound 7] this time N

Same question, CCOc1ccc(-c2nc(-c3ccc(CO)cc3)no2)cc1OCC [Compound 186] this time Y

Same question, COc1cc(-c2noc(-c3ccncc3)n2)ccc1C [Compound 44] this time N

Same question, CCn1nc(C)cc1-c1nc(-c2ccncc2)no1 [Compound 57] this time N

Same question, CCOc1ccc(-c2nc(-c3cccc4c3CCC4N3CC[C@@H](O)C3)no2)cc1OCC (some centres unmarked) [Compound 228] this time Y

Same question, COc1cc(-c2noc(-c3ccnnc3)n2)ccc1C [Compound 41] this time N

Same question, CCOc1ccc(-c2nc(-c3cccc(CNCCO)c3C)no2)cc1OCC [Compound 251] this time Y

Same question, CCOc1ccc(-c2nc(-c3cccc4c3CCN4CCN(CC)CC)no2)cc1OCC [Compound 232] this time N

Same question, COc1cc(-c2nc(-c3ccncc3)no2)ccc1C [Compound 39] this time N

Same question, CCOc1ccc(-c2nc(-c3ccc(CN4CCCC4)cc3)no2)cc1OCC [Compound 80] this time Y

Same question, CC(C)Oc1ccc(-c2nc(-c3cccc4c3CCC4O)no2)cc1C(F)(F)F (centres unmarked) [Compound 259] this time Y

Same question, CCOc1ccc(-c2nc(-c3cccc4c3CCC4=O)no2)cc1OCC [Compound 227] this time Y

Same question, CCOc1ccc(-c2nc(-c3ccc(CO)cc3C)no2)cc1OCC [Compound 201] this time Y

Same question, FC(F)(F)c1cc(-c2nc(-c3ccncc3)no2)ccc1-c1ccccc1 [Compound 59] this time Y

Same question, COc1cc(-c2noc(-c3cccnc3)n2)ccc1C [Compound 24] this time N

Same question, CCOc1ccc(-c2nc(-c3cccc4[nH]cc(CNCCN(CC)CC)c34)no2)cc1OCC [Compound 204] this time Y

Same question, COc1cc(-c2noc(Cc3ccncc3)n2)ccc1C [Compound 42] this time N

Same question, CCOc1ccc(-c2nc(-c3ccc4c(c3)CCN4)no2)cc1OCC [Compound 154] this time Y

* * *

Please go through the items and note down their pEC50.
study system: S1P1 (Homo sapiens (Human), UniProt P21453)
protocol description: S1P1 agonist assay (Ec50 S1P1Ag)
Assay type: cell-based
Reminder that pEC50 is minus the log10 of a molar concentration.

So what does the record say about pEC50 for CCOc1ccc(-c2nc(-c3nccc4ccccc34)no2)cc1OCC ? 7.89

Same question, CCOc1ccc(-c2nc(-c3cccc(C)c3C)no2)cc1OCC this time 7.90

Same question, CCOc1ccc(-c2nc(-c3cccc4c3CCN4C)no2)cc1OCC this time 8.23
